# Experiment Notes: Pharmacokinetics experiments of the salts of compound (I), oral capsules
# Type: in vivo, Beagle dogs
# Condition Info: dog; male Beagle dogs, oral capsule, 5 mg/kg, plasma; read-out: Cmax
Readout: Cmax (ng/mL)
Report the value in ng/mL with no unit label.

For record CC(C)(C)c1cc(NC(=O)Nc2ccc(C#Cc3ccc(OCCCN4CCOCC4)cc3)cc2)no1 [Free base] the listed Cmax is 60.9

----------
# Experiment Notes: Pharmacokinetics experiments of the salts of compound (I), oral capsules
# Format: in vivo, Beagle dogs
# Condition Info: dog; male Beagle dogs, oral capsule, 5 mg/kg, plasma
Readout: half-life (h)
Report the value in h with no unit label.

For record CC(C)(C)c1cc(NC(=O)Nc2ccc(C#Cc3ccc(OCCCN4CCOCC4)cc3)cc2)no1 [Free base] the listed half-life is 5.95

----------
# Experiment Notes: Pharmacokinetics experiments of the salts of compound (I), oral capsules
# Assay type: in vivo, Beagle dogs
# Condition Info: dog; male Beagle dogs, oral capsule, 5 mg/kg, plasma
Readout: MRT inf

For record CC(C)(C)c1cc(NC(=O)Nc2ccc(C#Cc3ccc(OCCCN4CCOCC4)cc3)cc2)no1 [Free base] the listed MRT inf is 7.52 h

----------
# Experiment Notes: Pharmacokinetics experiments of the salts of compound (I), oral capsules
# Assay type: in vivo, Beagle dogs
# Condition Info: dog; male Beagle dogs, oral capsule, 5 mg/kg, plasma
Readout: AUC(0-t) (ng·h/mL)
Report the value in ng·h/mL with no unit label.

For record CC(C)(C)c1cc(NC(=O)Nc2ccc(C#Cc3ccc(OCCCN4CCOCC4)cc3)cc2)no1 [Free base] the listed AUC(0-t) is 389
